Where do these numbers come from? They come from the supplement of paper PMC4862054.

- Test system: HCC1599
- assay info: normalised viability (% of control), CellTiter-Blue; higher = more viable cells (about 100 = DMSO control)
- setup conditions: 1000 nM; incubation time: 72 h
Binary label based on normalised viability with cut-off 90%: below gives criterion met, not below gives criterion not met.

Consider the following illustrative entries.
# compound, cat
measured = [
    ("Cn1c(Nc2ccc(C(F)(F)F)cc2)nc2cc(Oc3ccnc(-c4ncc(C(F)(F)F)[nH]4)c3)ccc21 [RAF265]", "criterion not met"),
    ("CN[C@@H]1C[C@H]2O[C@@](C)([C@@H]1OC)n1c3ccccc3c3c4c(c5c6ccccc6n2c5c31)C(=O)N[C@H]4O [UCN-01]", "criterion met"),
]

Is normalised viability of CN(N=O)C(=O)N[C@@H](C=O)[C@@H](O)[C@H](O)[C@H](O)CO [Streptozocin] strictly below 90%?
criterion met

----------
- Test system: CAL-148
- assay info: normalised response (% of control), CellTiter-Glo; higher = more viable cells (100 = DMSO, 0 = benzethonium chloride kill control)
- setup conditions: incubation time: 72 h
observed property: normalised response (%)
Report only the number, with the unit % understood.

# compound, tgt, normalised response [%]
rows = [
    ("CN(N=O)C(=O)N[C@@H](C=O)[C@@H](O)[C@H](O)[C@H](O)CO [Streptozocin] (1000 nM)", "CAL-148", 100),
]

Looking for the measured normalised response of C=C(c1ccc(C(=O)O)cc1)c1cc2c(cc1C)C(C)(C)CCC2(C)C [Bexarotene] (1000 nM) , can you help?
86.4

Looking for the measured normalised response of N.N.[Cl][Pt][Cl] [Cisplatin] (1 nM) , can you help?
90.5

Looking for the measured normalised response of CN(N=O)C(=O)N[C@@H](C=O)[C@@H](O)[C@H](O)[C@H](O)CO [Streptozocin] (1 nM) , can you help?
102

----------
- Tested on: CAL-85-1
- assay info: normalised viability (% of control), CellTiter-Blue; higher = more viable cells (about 100 = DMSO control)
- setup conditions: incubation time: 72 h
Measured normalised viability by item

Given the entry CO[C@H]1/C=C\C=C(/C)C(=O)NC2=CC(=O)C(NCCN(C)C)=C(C[C@@H](C)C[C@H](OC)[C@H](O)[C@@H](C)/C=C(\C)[C@@H]1OC(N)=O)C2=O [Alvespimycin] (100 nM) , what normalised viability was observed with CAL-85-1?
33.1%

Given the entry C=C(c1ccc(C(=O)O)cc1)c1cc2c(cc1C)C(C)(C)CCC2(C)C [Bexarotene] (1000 nM) , what normalised viability was observed with CAL-85-1?
84.5%

Given the entry CC1(C)NC(=O)N(c2ccc([N+](=O)[O-])c(C(F)(F)F)c2)C1=O [Nilutamide] (1000 nM) , what normalised viability was observed with CAL-85-1?
94.2%

Given the entry Cc1ccc(-n2nc(C(C)(C)C)cc2NC(=O)Nc2ccc(OCCN3CCOCC3)c3ccccc23)cc1 [Doramapimod] (1000 nM) , what normalised viability was observed with CAL-85-1?
73.5%

----------
Measured normalised viability by item
- Tested on: MDA-MB-453
- assay info: normalised viability (% of control), CellTiter-Blue; higher = more viable cells (about 100 = DMSO control)
- setup conditions: 100 nM; incubation time: 72 h
Record the result as a number with its unit.

Example entries begin here.
# compound, observed property, reading
rows = [
    ("COc1cc([C@@H]2c3cc4c(cc3[C@@H](O[C@@H]3O[C@@H]5CO[C@@H](C)O[C@H]5[C@H](O)[C@H]3O)[C@H]3COC(=O)[C@H]23)OCO4)cc(OC)c1O [Etoposide]", "normalised viability", "99.8%"),
    ("CC(C)Cn1cnc2c(N)nc3ccccc3c21", "normalised viability", "107%"),
    ("O=P1(NCCCl)OCCCN1CCCl (stereo unspecified) [Ifosfamide]", "normalised viability", "106%"),
    ("Oc1nc(-c2ccc(C(F)(F)F)cc2)nc2c1CSCC2", "normalised viability", "105%"),
    ("Cc1ccc(-n2nc(C(C)(C)C)cc2NC(=O)Nc2ccc(OCCN3CCOCC3)c3ccccc23)cc1", "normalised viability", "106%"),
]

Here's the next entry for you.
Looking for the measured normalised viability of O=C1CCC(N2C(=O)c3ccccc3C2=O)C(=O)N1 (stereo unspecified) [Thalidomide] , can you help?
89.7%
